# method.description: soluble on expression in E. coli; label from the status in PepcDB or PDB records
measured.property: soluble on expression in E. coli

sequence.input	measurement
MAHHHHHHMANIITLKSAWDVDRHIVLDSADKLVLIRFSSYTSAAVEAEEYSRQVKRGTATSTSTVAEGSSNSSSSALPTRKRRHDDADGNSACAVTSAATAALLSANVDEHYLRTRQMDALLSELAPKVRKYCTIYFVDTREVTAFNELYELGHDRDPFAVMFFYRNRHIRVDVGTGNNNKINFFAFEDLYDFLPIVDAAYKAGRQGRSIASCDRKFSTVALRR	soluble
MGSDKIHHHHHHMCQRPPARRATGPFPTLTASRAAARACTVTFQPNCARPCVRQRPEAAIDMAKTYNPAHADISPAARLAALGAGEAVDLGEYRVIRATHQDRPVFFAVRNAMDAIQKHHIEGAFYETEELDIIRRHFAPGETFIDLGANVGNHALYVAMYLEPAKVLCVEPNSLAYENLLANIVLNGVEETFDLSWLGFGVSCNVGDGFGITHWVHNLGGGKLIPRDGGTISLRSGDDILADTKADFIKIDVEGMEMDVLTSLENTVARDRPKIFVEVDNENRDAVLAWVDTHGYTTHETFKRYRDNENFLFVPESESET	not soluble
TGKIDGILSIGVDVTERVKWRKQIEASGARLKSMIDQTPAPTLVLMGDNLVIEQVNTSMLKLLGHEENIVGIPLLTLMPELKGQYIWEQVEKVYREGIPFDQSEVRVSHKRTGMMEDYYYNIAYRPLKED	not soluble
MAKILVAGKIPEIGLELLKDHDVEMYDKEELISLDELTERVKDKDALLSLLSTKVTKEVIDAAPSLKIVANYGAGYDNIDYTYAGEKGIAVTNTPKVSTEATAELTFALLLAAARRIPEGDTLCRTTGFNGWAPLFFLGREVHGKTIGIIGLGEIGKAVAKRAKAFGMNILYTGPNRKPEAESELEATYVTLEELLQTADFITINCAYNPKLHHMIDEEQFKMMKKTAYIVNASRGPIMHEAALAHALKTNEIEGAALDVFEFEPKITEELKGLKNVVLAPHVGNATFETRDAMAEMAVRNILAVLKGEEPVTPVNQKVFVTK	soluble
DVTPRRDAEYPPPEFLEAMKPLREICIKKTGVTEEAIIEFSDGKVHEDENLKCYMNCLFHEAKVVDDTGHVHLEKLHDALPDSMHDIALHMGKRCLYPEGENLCEKAFWLHKCWKESDPKHYFLI	soluble
MLDRILSIRKSRANRLRESMAKINSQIKEVDGKLDDCEQSIKESIASKQAYCASLVNLDKVSLYKYQIKNNAFDEQKQRLYEKKSSLSKEKRSLLDSQKRTKENLQHVNKSVEKLSFAIKEHYFD	not soluble
MGSDKIHHHHHHMTMTFALRDPAQVLARALELRVDVSPETAEVEHELGALHDRMRRPGDRLHDMPHMPSGLPGLRLRYREADGEIFVYVEDVASRQLAGYTVFNRLIEVGRRADPWVRSPHTKFAPPYQRLGLASGLYRWALDGGLCLLSGARQSAGAHALWQSLGRRYALGYVDLRYKTLTSLGEQVSAVVKDDLHTRMLLLGHGWTLGRFKEATGMY	not soluble
MAHHHHHHMLLSVLHAPRQASIAAPLHKVQSCAYAAPDTVSAVLADCLGKDIAPVLRYLTAFATPPVSKPTSHQSHHLAASTRVLRHALVLLLYSFVTTWRGAPPRETPPPPGAIALTREERALALELCRCVAALNESDTGSESIATGERRGDTSAQAHSRDARAEATGSHVTSLEAVTGAQFALVRDALADMLAPDHHSDGSAASTPVRARDSVAGNGPLWRACEAWIAGAVGTAVGASVAPPSSPFAGITGVRMKEEEAVDLLERVNDQLNQIARGGAVNAASRQCGNSAAMP	not soluble
MIRGLRQIEPYVAGVQPAERKMIKLNTNENAYGASPKVREALANFDVDNLRKYSTLEQADLRAALANNLKVKPEQLMIANGSDDVLSIAFLAFFNNDEPVLFPDLTYGFYKVWADLYRVNYHEIPLAEDFTINTEDYLADNGGIILTNPNAPTGIYKPLNEIEKLLKANQDTVVIIDEAYISFGGQSALSLLNKYNNLVITRTFSKDAALAGLRVGYAIANEPLIAVMNAVKHSINPYSVDLLAERLATAAVEDWSYYQENAKKIQKTRAWFSEQLVKQGFDVLPSQANFVLTKPHDLATAKLFEELEARKIYVRYFPKVERIKDYLRISMGTQEEMEEVVKAIEEIRG	soluble
MGSDKIHHHHHHMTTTPFNRLLLTGAAGGLGKVLRERLKGYAEVLRLSDISPMAPAAGPHEEVITCDLADKAAVHTLVEGVDAIIHFGGVSTEHAFEEILGPNICGVFHVYEAARKHGVKRIIFASSNHTIGFYRQDERIDAHAPRRPDSYYGLSKCYGEDVASFYFDRYGIETVSIRIGSSFPQPQNLRMLCTWLSYDDLVQLIERGLFTPGVGHTIVYGASDNRTVWWDNRHAAHLGYVPKDSSETFRAAVEAQPAPAADDPSMVYQGGAFAVAGPFN	not soluble
MAHHHHHHMKRENVSFPHAQSNVVSNLDGNTLLNDSLVQQSCSPTESKEDVKTEYDSFVDAPVIPLTEKFDDNYSQPVSTVNPRDDSIKCEMDVLPASSLTSVCNRKVIHGEKVDNDRVKIVRDWLLMPVLSQDSDFEGDGDDFIDTLLHIAEDKMYLYGFYERLGQTELVTTRRINNRKRSRGSNGISHATGNQGAQAPVMATSPPQVLPFSFVNWLPNSGKGRCDPERVHQQTISSDAILCSGEKYTLCRYALSSGKLRKECADPYQFLTAKLQEIRHCMEEELMGDAKNSNEKKTGVTDY	not soluble
MLLEPLKQLKQADARLNMTQGVLEGVVGEELGVLPGMDSIFSMLELERLVGFFRQATRKNHKGKPFDVIIYDGISTEETLRMIGLSSKTRLYAKYLRSLAEKTDLGRLTSPSIMRFVDESMNINSNKSPFDGMTSPAMWDTLERFLETGASAWRDPERFRSFLVMDPNNPMSVKAALRYWGCTVQAGSHVSGAFAISSSHLTSQIPKADFVPLPFASASVPFTITGLDWDKILLDQANSSIRELLSETVSHGTSLTQTVMFDTAKKLVTLFMPGFEKSEIKLYQYRGGSELLIEAGDQRRVIHLPSQIQGKVGGAKFVDRSLIVTMR	soluble

====

# method.description: soluble on expression in E. coli; label from the status in PepcDB or PDB records
measured.property: soluble on expression in E. coli

sequence.input	measured.property	measurement
MEVVIIAFLTQKEFEDLGFDEVEDFEKMEKRASHAVNLYCRNRYDYKDLKKEIALVQKAVKRAIAYQIAYLNDSGVMTAEDKQSFAGISLGRTSISYTVGHGQGSQQKTLADRFNLCLDAENELLAVGLGYTGISYDR	soluble on expression in E. coli	not soluble
MPSSDPTQSSGFAGLRSTSWPVLGILSFGEELSGYDLKKWASYSVRFFYWSPSFSQVYSELKKLEDLGYVTSRTVVDDEARVKPKRLYKITDAGMAVMRSWAREAPIDPPVLKHGVMLRMWLGHLTEPEQLKDALKEHISYVEGMSRQAALDARDSDVEPTWAFAHMVNKWSERYYAAESELAKQMLADIDEAVERMHGEGTPEHPGVPKPTASHSIRRSREAQKEYQAAMKAAQDADDEAERED	soluble on expression in E. coli	not soluble
MGSDKIHHHHHHMTRILVLYFTRGGHTAKIANAIAEQLTLRGAKVDLVDINSAAATRINWSDYQLVALGACVLYGTYDKSVFQFIEQHVQALSFLPNSFFCVNVVARNPEKRIPENNKYLQKFITLSPWTPADLKIIAGKVDYPSWPWYDRLMIQLIMKITKGPTDPKAVIDYTDWEDVKVYADHLLTLVEVAEPA	soluble on expression in E. coli	not soluble
EVPDYLCCNITLEIFRDPVISPSGVTYERAAILEHLKKVGKFDPITREKIDPANLVPNLAIKEAVAAYLEKHVWAYKMGC	soluble on expression in E. coli	soluble
MGLYAISDLHLAFNLDKPMNIFGEEWSKHDEKIKKNWISKISEEDTVLIAGDISWSMDIENGEEDLNWIDCLPGKKIICKGNHDYWWKSITKLNNMYKSISFLQNNFFEYKDYAICGTRGWIDKSFDSFDEHDKKVYKREIIRLRLSLDAAVKKGYSKFIVMFHYPPFKDENSGSEFTEVLEEYKVEKAIYGHLHGPALKNISGSIVKNGVEYMLTSCDYIEFNPIKIDLKLEHHHHHH	soluble on expression in E. coli	soluble
MTSNDSSENLRNRLAEKMAGDITLSEKPGESLKKWRLNFEISQTDIANYLKVSPSVISDYESGRRKSPGTLIVRKIVESLLEIDLERGGKKIHTYETMLNAESGSKSIYSTYEYTLPIQLAKLVNLIEGDIVYKGIEKPLYGFSVVDSQRAILELSSHEFQKLYGWSTDRAMIFTKVSTGKSPLVAIRVTNLKPGAVVLHGLRKEEVESVAVKMAEVDRVPLVATTMDLDQIVQLLKKYSQYYARE	soluble on expression in E. coli	not soluble
SNAMFHYTVDVSTGMNETIERLEESLKQEGFGVLWQFSVTEKLQEKGLDFSTPMVILEVCNPQEAARVLNENLLVGYFLPCKLVVYQENGTTKIGMPKPTMLVGMMNDPALKEIAADIEKRLAACLDRCR	soluble on expression in E. coli	soluble
MPTPCYISITGQTQGNITAGAFTADSVGNIYVQGHEDEMLVQEFLHNVTVPTDPQSGQPAGQRAHKPFIFTVALNKAVPLMYNALASGEMLPTTELHWWRTSVEGKQEHYFTTRLTDSTIVDMKLHMPHCQDPAKREFTQLLEVSLAYRKIEWEHVKSGTSGADDWRAPLEA	soluble on expression in E. coli	soluble
